assay: gradient 5% acetonitrile 3 min, to 50% in 2 min, to 85% in 15 min, held 3 min, 100 µL/min; conditions: column: Zorbax Extend-C18 2.1 x 50 mm; eluents: water / acetonitrile, 0.1% formic acid
measured.metric: RP-LC retention time (s)

{"columns": ["input.smiles", "measured.metric", "units.symbol", "quantitative.result"],
 "data": [
  ["COc1ccc(-c2nn3c(-c4ccc5ccccc5n4)nnc3s2)cc1", "RP-LC retention time", "s", 975],
  ["O=C1CN(c2ncnc3[nH]ncc23)CC(=O)N1CCc1ccccc1", "RP-LC retention time", "s", 662],
  ["CC1=NN(CCC#N)C(=O)/C1=C\\c1ccc(N(C)C)cc1", "RP-LC retention time", "s", 691],
  ["O=S(=O)(c1cccn2c(SCc3cccc(F)c3)nnc12)N1CCCC1", "RP-LC retention time", "s", 831],
  ["Cc1cc(C)nc(N2CCN(c3ccc(F)cc3)CC2)n1", "RP-LC retention time", "s", 876]
]}
